// provenance: PubChem BioAssay (NCI)

Catalogue of molecules with associated TGI
- Test system: HOP-62 NSCLC
- Assay protocol: NCI tumour cell line growth inhibition, 48 h

COn1cc(CO)c2ccccc21	> 100 µM
Oc1c2c(c(O)c3ccccc13)=N[C@@H](c1ccccc1)[C@H](c1ccccc1)N=2	> 100 µM
c1ccc([P+](Cc2csnn2)(c2ccccc2)c2ccccc2)cc1	> 100 µM
CCC1(CC)C(=O)NC(=S)N=C1N	> 100 µM
COc1ccc(C(=O)C(C(=O)CCC(=O)Nc2cccc(C(F)(F)F)c2)c2ccccc2)cc1 (stereo unspecified)	> 100 µM

Query :: Would you please give the reported TGI of COc1cc(/C=C/C(=O)O)ccc1OS(=O)(=O)O with HOP-62 NSCLC?
Result :: > 100 µM

Query :: Would you please give the reported TGI of CC1OC(n2cc(F)c(=O)[nH]c2=O)C(O[Si](C)(C)C(C)(C)C)C1O[Si](C)(C)C(C)(C)C (stereo unspecified) with HOP-62 NSCLC?
Result :: 43.7 µM

Query :: Would you please give the reported TGI of O=C(CN=C(CN(c1ccccc1)c1ccccc1)Oc1c(Cl)cc(Cl)cc1Cl)n1cnc2ccccc21 with HOP-62 NSCLC?
Result :: > 100 µM

Query :: Would you please give the reported TGI of O=C1c2ccccc2-c2c1c1ccccc1c(=O)n2CCNCCCNCCn1c2c(c3ccccc3c1=O)C(=O)c1ccccc1-2 with HOP-62 NSCLC?
Result :: 1.16 µM

Query :: Would you please give the reported TGI of Cc1c(-c2nc(N)nc(C3CC3)c2C)nc(N)nc1C1CC1 with HOP-62 NSCLC?
Result :: > 100 µM

Query :: Would you please give the reported TGI of CCN(CC(=O)O)CC(=O)O with HOP-62 NSCLC?
Result :: > 100 µM

Query :: Would you please give the reported TGI of Brc1ccc2c(c1)-c1nc3c(cc1CC2)CCc1ccc(Br)cc1-3 with HOP-62 NSCLC?
Result :: > 100 µM

Query :: Would you please give the reported TGI of CN(C)C(=S)/N=c1\ss/c(=N\S(=O)(=O)c2ccccc2)n1-c1ccccc1 with HOP-62 NSCLC?
Result :: 98.3 µM

Query :: Would you please give the reported TGI of Clc1cccc(C2ON=C(c3ccccc3)N2C23CC4CC(CC(C4)C2)C3)c1Cl (stereo unspecified) with HOP-62 NSCLC?
Result :: > 10 µM

Query :: Would you please give the reported TGI of CC(=O)n1c(-c2ccc(Cl)cc2)nc2c(c1=O)C(c1ccc(Cl)cc1)c1sc3c(Cl)cccc3c1O2 (stereo unspecified) with HOP-62 NSCLC?
Result :: 1.76 µM

Query :: Would you please give the reported TGI of COc1cc(/C=C2\CC3C4CC=C5CC(N6CCCC6)CC[C@]5(C)C4CC[C@]3(C)C2OC(C)=O)ccc1OCCN1CCCC1 (stereo partly specified) with HOP-62 NSCLC?
Result :: 34.6 µM

Query :: Would you please give the reported TGI of COc1cc(CCCOC2OC(COC3OCC(O)C(O)C3O)C(O)C(O)C2O)cc2cc(-c3ccc4c(c3)OCO4)oc12 (stereo unspecified) with HOP-62 NSCLC?
Result :: > 175 µM

Query :: Would you please give the reported TGI of CC(=O)[CH-]C(C)=O.CC(=O)[CH-]C(C)=O.N=CC=N.[Sn+2] with HOP-62 NSCLC?
Result :: 33.9 µM

Query :: Would you please give the reported TGI of COc1ccccc1C(=O)c1ccc2ccccc2c1 with HOP-62 NSCLC?
Result :: > 100 µM

Query :: Would you please give the reported TGI of COc1ccc(NC2=C(Br)C(=O)C(C)=C(C)C2=O)cc1 with HOP-62 NSCLC?
Result :: 38.6 µM

Query :: Would you please give the reported TGI of OC(c1ccco1)C(F)(F)c1nc2ccccc2o1 (stereo unspecified) with HOP-62 NSCLC?
Result :: > 100 µM
